Provenance of the data: patent US4321265A

Molecular target: Cephalosporinase (S. marcescens W-8) (Serratia marcescens, UniProt P18539)
Construct: native preparation, details not in excerpts
Sequence (P18539 22-376): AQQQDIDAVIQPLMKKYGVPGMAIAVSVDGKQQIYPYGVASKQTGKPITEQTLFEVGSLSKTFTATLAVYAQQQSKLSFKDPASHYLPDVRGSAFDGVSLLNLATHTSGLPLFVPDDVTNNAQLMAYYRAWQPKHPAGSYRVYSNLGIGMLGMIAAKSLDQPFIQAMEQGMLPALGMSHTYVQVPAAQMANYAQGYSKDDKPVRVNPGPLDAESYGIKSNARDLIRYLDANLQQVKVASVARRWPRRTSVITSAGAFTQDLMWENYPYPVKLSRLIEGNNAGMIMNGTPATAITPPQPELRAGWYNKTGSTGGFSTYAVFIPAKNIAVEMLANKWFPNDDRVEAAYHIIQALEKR
Experiment: Stability to β-lactamase, iodometry (Perret)
Assay type: biochemical
Conditions: S. marcescens W-8 cephalosporinase; CER = 100; 30° C., pH 7.0
Listing of recorded Stability to β-lactamase, relative degree of hydrolysis by entry.
Property Label: Stability to β-lactamase, relative degree of hydrolysis

Compound | Observed Measurement
CC1(C)S[C@@H]2[C@H](NC(=O)Cc3ccccc3)C(=O)N2[C@H]1C(=O)O | 21
O=C(Cc1cccs1)N[C@@H]1C(=O)N2C(C(=O)[O-])=C(C[n+]3ccccc3)CS[C@H]12 | 100
Cc1nnc(SCC2=C(C(=O)O)N3C(=O)[C@@H](NC(=O)Cn4cnnn4)[C@H]3SC2)s1 | 94
CCN1CCN(C(=O)NC(C(=O)N[C@]2(OC)C(=O)N3C(C(=O)O)=C(CSc4nnnn4C)CS[C@@H]32)c2cccs2)C(=O)C1=O (stereo partly shown) | 0.02
